- test-target: HLA-B*44:05 (Homo sapiens, UniProt P01889, A223V/A65T/A93T/A95T/D201E/D98Y/E176V/E187L/E204Q/E69K/G107R/H137Y/K202T/L105A/L119I/N104T/N87E/Q56L/Q94N/R106L/R155S/R180D/S101N/S121R/S35A/S48T/T118I/V36M/W191S/Y91S)
- test-method-notes: MHC binding assay (UV-ligand exchange, β2m ELISA, peptide exchange yield)
- experimental-setup: binding to HLA-B*44:05
- Source text: Candidate peptides for T cell-based therapies according to the present invention were further tested for their MHC binding capacity (affinity). The individual peptide-MHC complexes were produced by UV-ligand exchange, where a UV-sensitive peptide is cleaved upon UV-irradiation and exchanged with the peptide of interest as analyzed. Only peptide candidates that can effectively bind and stabilize the peptide-receptive MHC molecules prevent dissociation of the MHC complexes. […]
recorded-metric: Peptide exchange (MHC class I binding score, peptide exchange yield)

# example entries with known answers
{"substance": "101 (SEENTGKTY; listed as Homo sapiens) [compound 101]", "endpoint-result": "+++ (>50 = +++)"}
{"substance": "357 (AELMDKPLTF; listed as Homo sapiens) [compound 357]", "endpoint-result": "+++ (>50 = +++)"}
{"substance": "385 (LEHPFLVNLW; listed as Homo sapiens) [compound 385]", "endpoint-result": "++++ (>75% = ++++)"}
{"substance": "218 (REAEEKEAQL; listed as Homo sapiens) [compound 218]", "endpoint-result": "+++ (>50 = +++)"}
{"substance": "64 (EEYQDSFERY; listed as Homo sapiens) [compound 64]", "endpoint-result": "++ (>20% = ++)"}

Data point: 425 (KEVDPASNTY; listed as Homo sapiens) [compound 425] ; Peptide exchange (MHC class I binding score, peptide exchange yield) = +++ (>50 = +++)

Data point: 401 (VENIFHNF; listed as Homo sapiens) [compound 401] ; Peptide exchange (MHC class I binding score, peptide exchange yield) = ++ (>20% = ++)

Data point: 35 (RELVHMINW; listed as Homo sapiens) [compound 35] ; Peptide exchange (MHC class I binding score, peptide exchange yield) = ++++ (>75% = ++++)

Data point: 174 (DENDAGNLITF; listed as Homo sapiens) [compound 174] ; Peptide exchange (MHC class I binding score, peptide exchange yield) = +++ (>50 = +++)

====

- test-target: HLA-B*44:05 (Homo sapiens, UniProt P01889, A223V/A65T/A93T/A95T/D201E/D98Y/E176V/E187L/E204Q/E69K/G107R/H137Y/K202T/L105A/L119I/N104T/N87E/Q56L/Q94N/R106L/R155S/R180D/S101N/S121R/S35A/S48T/T118I/V36M/W191S/Y91S)
- test-method-notes: MHC binding assay (UV-ligand exchange, β2m ELISA, peptide exchange yield)
- experimental-setup: binding to HLA-B*44:05
recorded-metric: Peptide exchange (MHC class I binding score, peptide exchange yield)

# example entries with known answers
{"substance": "171 (WEVVHTVF; listed as Homo sapiens) [compound 171]", "endpoint-result": "++ (>20% = ++)"}
{"substance": "393 (SETILAVGL; listed as Homo sapiens) [compound 393]", "endpoint-result": "+++ (>50 = +++)"}
{"substance": "52 (EDNPSGHTY; listed as Homo sapiens) [compound 52]", "endpoint-result": "++ (>20% = ++)"}
{"substance": "123 (DEINHQSL; listed as Homo sapiens) [compound 123]", "endpoint-result": "++ (>20% = ++)"}

// next entry
Data point: 352 (QEDELVKIRKY; listed as Homo sapiens) [compound 352] ; Peptide exchange (MHC class I binding score, peptide exchange yield) = +++ (>50 = +++)

Each recorded value in this set is attributed to patent US12065471B2.
